tested on: pentylenetetrazol-induced tonic convulsions in mice; test: Pentazol tonic convulsions in mice, i.p. (Procedure 401); assay type: in vivo; details: Mus musculus, ip; i.p. 30 min before 150 mg/kg pentylenetetrazol s.c.; seizures inhibited in 50% of the animals; read-out: ED50, activity against pentazol induced convulsions, tonic
Threshold 1 mg/kg. ED50 below it: 1 (yes). ED50 at it or above: 0 (no).

Quick check: ED50 of `CC(C)c1noc(-c2ncn3c2CN(C)C(=O)c2ccccc2-3)n1` under 1 mg/kg? 0 (no)

Given `CCc1nc(-c2ncn3c2CN(C)C(=O)c2ccccc2-3)no1` , is recorded ED50 strictly lower than 1 mg/kg? 0 (no)

is_below(ED50, 1 mg/kg) for `CN1Cc2c(-c3nc(C4CC4)no3)ncn2-c2ccccc2C1=O` ? 1 (yes)

Is 1 mg/kg strictly greater than the compound's reported ED50? compound: `CN1Cc2c(-c3noc(C4CC4)n3)ncn2-c2ccccc2C1=O` 1 (yes)
